TEST SUMMARY: xn = mol fraction of the nth substance listed, in the solute-free solvent
RECORDED CONDITIONS: 303.15 K; x2 = 0.4117
ENDPOINT NAME: solubility (g/100 g solution)

O=c1cc(CBr)c2ccccc2[nH]1 + CC(C)O + O	0.127
CC(C)C(=O)Nc1ccc([N+](=O)[O-])c(C(F)(F)F)c1 + CC(C)O + O	14.6
Nc1ncc(Br)nc1Br + CC(C)O + O	0.358

A = O=C1C=CC(=O)N1c1ccccc1Br + CC(C)O + O
B = O=c1cc(CBr)c2ccccc2[nH]1 + CCCO + O
Inquiry: Given the listed items, does A or B have the lesser reported solubility (g/100 g solution)? Please indicate the selected item by its label.
Reply text: B
